The measurements presented in this section are drawn from ChEMBL document CHEMBL2034824.

# Measured Target: serum albumin (Homo sapiens)
# Sequence (P02768 whole entry): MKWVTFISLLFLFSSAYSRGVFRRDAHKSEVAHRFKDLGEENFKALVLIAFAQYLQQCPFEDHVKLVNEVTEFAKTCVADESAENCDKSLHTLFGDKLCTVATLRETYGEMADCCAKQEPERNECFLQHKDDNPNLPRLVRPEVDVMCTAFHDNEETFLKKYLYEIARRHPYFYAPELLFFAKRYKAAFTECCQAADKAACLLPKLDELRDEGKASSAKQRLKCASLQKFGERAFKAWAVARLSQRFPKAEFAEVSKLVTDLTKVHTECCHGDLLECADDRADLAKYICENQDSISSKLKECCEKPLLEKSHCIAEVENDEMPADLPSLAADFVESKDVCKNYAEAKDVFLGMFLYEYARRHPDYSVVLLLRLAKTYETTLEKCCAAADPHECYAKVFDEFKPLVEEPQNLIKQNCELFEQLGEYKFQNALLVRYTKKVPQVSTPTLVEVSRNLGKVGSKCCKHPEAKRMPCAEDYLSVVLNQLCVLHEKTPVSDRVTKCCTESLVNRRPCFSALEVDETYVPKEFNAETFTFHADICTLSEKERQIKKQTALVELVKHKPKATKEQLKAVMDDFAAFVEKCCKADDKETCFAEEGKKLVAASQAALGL
# Experiment Notes: Binding affinity to human serum albumin
# Format: ADME
# Experimental Setup: read-out: PB (converted)
Assay Readout: fraction unbound

CC[C@H](C)[C@@H]1C(=O)N[C@H](C2Cc3ccccc3C2)C(=O)N1[C@@H](C(=O)N1CCOCC1)c1ccc(C)nc1C [EPELSIBAN]	0.3
Cc1ccc([C@H](C(=O)N2CCOCC2)N2C(=O)[C@@H](C3Cc4ccccc4C3)NC(=O)[C@H]2CC(C)C)cn1	0.33
Cc1ccc([C@H](C(=O)N2CCCC2)N2C(=O)[C@@H](C3Cc4ccccc4C3)NC(=O)[C@H]2CC(C)C)cn1	0.24

###

# Experiment Notes: AUC in dog at 0.6 mg/kg, po
# Type: ADME, organism-based, Canis lupus familiaris
# Set-up: dose 0.6 mg/kg, route oral
# Experimental Setup: plasma
Assay Readout: AUC (µg·h/mL)

Record excerpt, results attached:
Cc1ccc([C@H](C(=O)N2CCOCC2)N2C(=O)[C@@H](C3Cc4ccccc4C3)NC(=O)[C@H]2CC(C)(C)C)cn1	0.021
CC[C@H](C)[C@@H]1C(=O)N[C@H](C2Cc3ccccc3C2)C(=O)N1[C@@H](C(=O)N1CCOCC1)c1ccc(C)nc1C	0.069
CC[C@H](C)[C@@H]1C(=O)N[C@H](C2Cc3ccccc3C2)C(=O)N1[C@@H](C(=O)N(C)C)c1ccc(C)nc1	0.347
CCC(CC)[C@@H]1C(=O)N[C@H](C2Cc3ccccc3C2)C(=O)N1[C@@H](C(=O)NC)c1ccc(C)nc1	0.173
CC[C@@H](C)[C@@H]1C(=O)N[C@H](C2Cc3ccccc3C2)C(=O)N1[C@@H](C(=O)N1CCOCC1)c1ccc(C)nc1	0.138

(A) Cc1ccc([C@H](C(=O)N2CCOCC2)N2C(=O)[C@@H](C3Cc4ccccc4C3)NC(=O)[C@H]2CC(C)C)cn1
(B) CC[C@H](C)[C@@H]1C(=O)N[C@H](C2Cc3ccccc3C2)C(=O)N1[C@@H](C(=O)N(C)C)c1cnc(C)cc1C
Which value of AUC is greater, the one for A or the one for B ? Field: selected label. Fill in the label of the entry you choose. B
(B: 0.14 µg·h/mL, A: 0.053 µg·h/mL)

###

# Measured Target: Vasopressin V1a receptor (Homo sapiens)
# Sequence (P37288 whole entry): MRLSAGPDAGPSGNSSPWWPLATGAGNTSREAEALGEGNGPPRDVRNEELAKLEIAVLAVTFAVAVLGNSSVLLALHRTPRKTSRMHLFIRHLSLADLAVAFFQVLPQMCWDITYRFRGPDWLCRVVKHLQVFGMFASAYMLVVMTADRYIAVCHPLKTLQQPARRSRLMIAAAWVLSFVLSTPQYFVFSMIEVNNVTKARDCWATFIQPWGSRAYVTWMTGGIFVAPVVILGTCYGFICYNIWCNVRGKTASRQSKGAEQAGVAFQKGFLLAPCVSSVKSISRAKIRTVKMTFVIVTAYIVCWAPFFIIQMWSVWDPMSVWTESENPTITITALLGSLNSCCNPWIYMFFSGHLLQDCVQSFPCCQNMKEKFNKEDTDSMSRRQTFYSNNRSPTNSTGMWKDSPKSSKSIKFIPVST
Assay Readout: Ki (nM)
Reply numerically in nM, unit not repeated.

Reading of Ki for "CC(C)C[C@@H]1C(=O)N[C@H](C2Cc3ccccc3C2)C(=O)N1[C@@H](C(=O)N(C)C)c1ccc(F)cc1F" with Vasopressin V1a receptor (Homo sapiens): 631

###

# Experiment Notes: Oral bioavailability in dog at 0.6 mg/kg
# Assay type: ADME, organism-based, Canis lupus familiaris
# Experimental Setup: in vivo
Assay Readout: bioavailability (%)

(a) CC[C@H](C)[C@@H]1C(=O)N[C@H](C2Cc3ccccc3C2)C(=O)N1[C@@H](C(=O)N(C)C)c1ccc(C)nc1
(b) Cc1ccc([C@H](C(=O)N(C)C)N2C(=O)[C@@H](C3Cc4ccccc4C3)NC(=O)[C@H]2CC(C)C)cn1
Between these two entries, a and b , state which has the higher bioavailability. Record your answer as the label of the chosen record. a
(a: 39%, b: 26%)

(a) CCC(CC)[C@@H]1C(=O)N[C@H](C2Cc3ccccc3C2)C(=O)N1[C@@H](C(=O)N(C)C)c1ccc(C)nc1
(b) Cc1ccc([C@H](C(=O)N2CCOCC2)N2C(=O)[C@@H](C3Cc4ccccc4C3)NC(=O)[C@H]2CC(C)(C)C)cn1
(c) CC[C@H](C)[C@@H]1C(=O)N[C@H](C2Cc3ccccc3C2)C(=O)N1[C@@H](C(=O)NC)c1ccc(C)nc1C
Returns the items ordered by bioavailability, from maximum to minimum. When ranking, write the labels in the order the request describes. a, c, b
(a: 47%, c: 13%, b: 5%)

(a) CCC(CC)[C@@H]1C(=O)N[C@H](C2Cc3ccccc3C2)C(=O)N1[C@@H](C(=O)NC)c1ccc(C)nc1
(b) Cc1ccc([C@H](C(=O)N2CCOCC2)N2C(=O)[C@@H](C3Cc4ccccc4C3)NC(=O)[C@H]2CC(C)C)cn1
Smaller bioavailability value, a vs b ? State the label of the item chosen. b
(b: 10%, a: 38%)
